# credit: BigSolDB 2.1

settings: in n-butanol, 328.55 K

Structure | solubility (mole fraction)
CC(=O)[C@@]12O[C@@H]1C[C@H]1[C@@H]3CCC4=CC(=O)CC[C@]4(C)[C@H]3[C@H](O)C[C@@]12C | 0.00237
